Biological target: mouse 9cRDH (Mus musculus, UniProt O55240)
Sequence (O55240 1-318): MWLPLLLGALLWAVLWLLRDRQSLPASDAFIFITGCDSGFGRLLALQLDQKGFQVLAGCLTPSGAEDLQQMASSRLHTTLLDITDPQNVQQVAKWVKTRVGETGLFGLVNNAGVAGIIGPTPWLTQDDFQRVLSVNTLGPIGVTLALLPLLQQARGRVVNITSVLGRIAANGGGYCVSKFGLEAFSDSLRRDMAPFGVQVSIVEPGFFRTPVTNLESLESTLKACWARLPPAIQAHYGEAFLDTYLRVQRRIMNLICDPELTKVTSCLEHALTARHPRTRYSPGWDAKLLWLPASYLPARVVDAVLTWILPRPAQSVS
Test: Inhibition of recombinant mouse 9cRDH activity (9-cis-retinol oxidation, CHO cell homogenate, HPLC)
Type: biochemical
Conditions: 10 μM 9-cis-retinol
Observation type: inhibition of mouse 9cRDH activity (in words)

- Molecule: "CC1=C(/C=C/C(C)=C\\C=C\\C(C)=C\\C(=O)O)C(C)(C)CCC1 [9-cis Retinoic Acid, 9-cis-retinoic acid]"
  Target or system: "mouse 9cRDH (Mus musculus, UniProt O55240)"
  Reported result: "very potent inhibitors"
- Molecule: "CC1=C(/C=C/C(C)=C/C=C/C(C)=C\\C(=O)O)C(C)(C)CCC1 [13-cis Retinoic Acid, 13-cis-retinoic acid]"
  Target or system: "mouse 9cRDH (Mus musculus, UniProt O55240)"
  Reported result: "very potent inhibitors"
- Molecule: "CC1=C(/C=C/C(C)=C/C=C/C(C)=C/C(=O)O)C(C)(C)CCC1 [all-trans Retinoic Acid, all-trans-retinoic acid]"
  Target or system: "mouse 9cRDH (Mus musculus, UniProt O55240)"
  Reported result: "very potent inhibitors"

====

Target: mouse 9cRDH (m9cRDH) (Mus musculus, UniProt O55240)
Sequence (O55240 1-318): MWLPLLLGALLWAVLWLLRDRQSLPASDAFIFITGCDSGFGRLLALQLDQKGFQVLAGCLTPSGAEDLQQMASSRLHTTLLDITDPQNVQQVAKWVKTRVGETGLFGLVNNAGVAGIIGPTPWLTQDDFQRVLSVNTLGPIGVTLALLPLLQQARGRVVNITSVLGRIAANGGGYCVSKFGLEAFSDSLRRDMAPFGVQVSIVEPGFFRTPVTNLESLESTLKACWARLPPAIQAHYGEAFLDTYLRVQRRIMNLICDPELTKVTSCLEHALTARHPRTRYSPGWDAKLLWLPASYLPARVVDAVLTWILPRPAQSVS
Assay: Retinaldehyde isomer reduction by recombinant mouse 9cRDH
Format: biochemical
Details: substrate 10 μM, 15 min, 150–180 μg protein/assay, NADH, pH 5.0
Observation type: m9cRDH specific activity, retinaldehyde reduction

Query: Could you tell me which m9cRDH specific activity, retinaldehyde reduction is on file for CC1=C(/C=C/C(C)=C/C=C/C(C)=C\C=O)C(C)(C)CCC1 [13-cis-retinaldehyde] ?
Reply: 748 pmol/min/mg protein

Query: Could you tell me which m9cRDH specific activity, retinaldehyde reduction is on file for CC1=C(/C=C/C(C)=C/C=C/C(C)=C/C=O)C(C)(C)CCC1 [all-trans-retinaldehyde] ?
Reply: 1.3 pmol/min/mg protein

Query: Could you tell me which m9cRDH specific activity, retinaldehyde reduction is on file for CC1=C(/C=C/C(C)=C\C=C\C(C)=C\C=O)C(C)(C)CCC1 [9-cis-retinaldehyde] ?
Reply: 420 pmol/min/mg protein

Query: Could you tell me which m9cRDH specific activity, retinaldehyde reduction is on file for CC1=C(/C=C/C(C)=C/C=C\C(C)=C\C=O)C(C)(C)CCC1 [11-cis-retinaldehyde] ?
Reply: 506 pmol/min/mg protein

====

Biological target: human 9-cis retinol dehydrogenase (9cRDH) (Homo sapiens, UniProt Q92781)
Sequence (Q92781 1-318): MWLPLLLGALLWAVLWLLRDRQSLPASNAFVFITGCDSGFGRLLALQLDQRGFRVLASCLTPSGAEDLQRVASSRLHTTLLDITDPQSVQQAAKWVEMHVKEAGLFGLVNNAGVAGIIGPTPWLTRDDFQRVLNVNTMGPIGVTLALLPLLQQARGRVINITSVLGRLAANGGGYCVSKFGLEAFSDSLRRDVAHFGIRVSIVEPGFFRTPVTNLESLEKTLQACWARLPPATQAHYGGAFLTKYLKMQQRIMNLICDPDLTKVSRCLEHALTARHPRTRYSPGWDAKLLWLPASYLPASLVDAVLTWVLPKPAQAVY
Experiment: Inhibition of recombinant human 9cRDH activity (9-cis-retinol oxidation, CHO cell homogenate, HPLC)
Conditions: 10 μM 9-cis-retinol, 15 min, 37° C., CHO cell homogenate; read-out: Estimated inhibitor concentration resulting in 50% inhibition of human 9-cis retinol dehydrogenase activity (ID50)
Observation type: IC50

Query: Could you tell me which IC50 is on file for CCCCCCCCCCCCCCCC(=O)O ?
Reply: > 100 µM

Query: Could you tell me which IC50 is on file for CCCCCCCCCCC/C=C\CCCCCO ?
Reply: > 100 µM

Query: Could you tell me which IC50 is on file for CCCCCCCC/C=C\CCCCCCCC(=O)O ?
Reply: 15 µM

Query: Could you tell me which IC50 is on file for CC1=C(/C=C/C(C)=C/C=C/C(C)=C/C(=O)O)C(C)(C)CCC1 [all-trans Retinoic Acid, all-trans-retinoic acid] ?
Reply: 4.6 µM

Query: Could you tell me which IC50 is on file for CCCCCCCC/C=C\CCCCCCCCO ?
Reply: > 100 µM

====

molecular target: UniProt Q92781; assay: Retinaldehyde isomer reduction by recombinant human 9cRDH; assay type: biochemical; details: substrate 10 μM, 15 min, 150–180 μg protein/assay, NADH, pH 5.0
Provide the recorded h9cRDH specific activity, retinaldehyde reduction for the entries that follow.
Field: numeric (pmol/min/mg protein). Do not append units.

Query: Could you tell me which h9cRDH specific activity, retinaldehyde reduction is on file for CC1=C(/C=C/C(C)=C\C=C\C(C)=C\C=O)C(C)(C)CCC1 [9-cis-retinaldehyde] ?
Reply: 268

Query: Could you tell me which h9cRDH specific activity, retinaldehyde reduction is on file for CC1=C(/C=C/C(C)=C/C=C/C(C)=C/C=O)C(C)(C)CCC1 [all-trans-retinaldehyde] ?
Reply: 1.1

Query: Could you tell me which h9cRDH specific activity, retinaldehyde reduction is on file for CC1=C(/C=C/C(C)=C/C=C\C(C)=C\C=O)C(C)(C)CCC1 [11-cis-retinaldehyde] ?
Reply: 1220

Query: Could you tell me which h9cRDH specific activity, retinaldehyde reduction is on file for CC1=C(/C=C/C(C)=C/C=C/C(C)=C\C=O)C(C)(C)CCC1 [13-cis-retinaldehyde] ?
Reply: 744

====

target: mouse 9cRDH (m9cRDH) (Mus musculus, UniProt O55240); assay: Retinol isomer oxidation by recombinant mouse 9cRDH; format: biochemical; conditions: substrate 10 μM, 15 min, 150–180 μg protein/assay, NAD+
Observation type: m9cRDH specific activity, retinol oxidation (pmol/min/mg protein)
Field: numeric (pmol/min/mg protein). Do not append units.

Query: Could you tell me which m9cRDH specific activity, retinol oxidation is on file for CC1=C(/C=C/C(C)=C/C=C/C(C)=C\CO)C(C)(C)CCC1 [13-cis-retinol] ?
Reply: 2.0

Query: Could you tell me which m9cRDH specific activity, retinol oxidation is on file for CC1=C(/C=C/C(C)=C\C=C\C(C)=C\CO)C(C)(C)CCC1 [9-cis-retinol] ?
Reply: 328

Query: Could you tell me which m9cRDH specific activity, retinol oxidation is on file for CC1=C(/C=C/C(C)=C/C=C/C(C)=C/CO)C(C)(C)CCC1 [all-trans Retinol, All-trans-retinol] ?
Reply: 0.6

Query: Could you tell me which m9cRDH specific activity, retinol oxidation is on file for CC1=C(/C=C/C(C)=C/C=C\C(C)=C\CO)C(C)(C)CCC1 [11-cis-retinol] ?
Reply: 152

====

target: UniProt O55240; assay: Inhibition of recombinant mouse 9cRDH activity (9-cis-retinol oxidation, CHO cell homogenate, HPLC); details: substrate concentration 10 μM; read-out: Inhibitor concentration giving approximately 50% inhibition of m9cRDH activity
Observation type: IC50

Query: Could you tell me which IC50 is on file for CC1=C(/C=C/C(C)=C/C=C/C(C)=C\C(=O)O)C(C)(C)CCC1 [13-cis Retinoic Acid, 13-cis-retinoic acid] ?
Reply: ~0.15 µM

====

biological target: human 9cRDH (h9cRDH) (Homo sapiens); test: Retinol isomer oxidation by recombinant human 9cRDH (substrate and cofactor specificity); type: biochemical; conditions: substrate 10 μM, 15 min, 150–180 μg protein/assay, NAD+
Observation type: h9cRDH specific activity, retinol oxidation (pmol/min/mg protein)
Field: numeric (pmol/min/mg protein). Do not append units.

Query: Look up h9cRDH specific activity, retinol oxidation with human 9cRDH (h9cRDH) (Homo sapiens) for this compound: CC1=C(/C=C/C(C)=C/C=C/C(C)=C\CO)C(C)(C)CCC1 [13-cis-retinol]
Reply: 0.3

Query: Look up h9cRDH specific activity, retinol oxidation with human 9cRDH (h9cRDH) (Homo sapiens) for this compound: CC1=C(/C=C/C(C)=C/C=C\C(C)=C\CO)C(C)(C)CCC1 [11-cis-retinol]
Reply: 442

Query: Look up h9cRDH specific activity, retinol oxidation with human 9cRDH (h9cRDH) (Homo sapiens) for this compound: CC1=C(/C=C/C(C)=C\C=C\C(C)=C\CO)C(C)(C)CCC1 [9-cis-retinol]
Reply: 367

Query: Look up h9cRDH specific activity, retinol oxidation with human 9cRDH (h9cRDH) (Homo sapiens) for this compound: CC1=C(/C=C/C(C)=C/C=C/C(C)=C/CO)C(C)(C)CCC1 [all-trans Retinol, All-trans-retinol]
Reply: 0.5
